Give EC50 for every item shown.
tested.target: Free fatty acid receptor 1 (Homo sapiens, UniProt O14842)
Sequence (O14842 whole entry): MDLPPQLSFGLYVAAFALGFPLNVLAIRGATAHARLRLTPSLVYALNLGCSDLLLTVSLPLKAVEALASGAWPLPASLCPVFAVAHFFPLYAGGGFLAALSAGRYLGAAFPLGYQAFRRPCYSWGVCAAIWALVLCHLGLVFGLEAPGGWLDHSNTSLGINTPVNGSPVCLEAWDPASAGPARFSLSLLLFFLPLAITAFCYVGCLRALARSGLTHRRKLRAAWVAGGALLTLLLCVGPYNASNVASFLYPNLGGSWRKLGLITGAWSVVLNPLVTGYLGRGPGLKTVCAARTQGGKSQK
experimental.details: Agonist activity at GPR40 (unknown origin) expressed in CHO cells assessed as luminescence for 20 seconds interval by aequorin assay in presence of 0.01% human serum albumin
Format: cell-based
Give bare numbers, in µM.

Known results for compounds:
chem.smiles | EC50 (µM)
COc1ccc(F)c(-c2ccc(COc3cccc([C@@H](CC(=O)O)C4CC4)c3)cc2[C@@H]2OCCCC2(C)C)c1 | 0.227
COc1ccc(F)c(-c2ccc(COc3cccc([C@@H](CC(=O)O)C4CC4)c3)cc2[C@H](OC)C(C)(C)C)c1 | 0.147
COc1ccc(F)c(-c2ccc(COc3cccc([C@@H](CC(=O)O)C4CC4)c3)cc2[C@@H](OC)C(C)(C)C)c1 | 1.41
CCO[C@@H](c1cc(COc2cccc([C@@H](CC(=O)O)C3CC3)c2)ccc1-c1cc(OC)ccc1F)C(C)(C)C | 0.114

List EC50 for every entry below, keeping the order given.
1. COc1cc(-c2ccc(COc3ccc4c(c3)[C@@](C)(CC(=O)O)CC4)cc2[C@@H]2CCCC2(C)C)c(F)cn1
2. CCC[C@H](CC(=O)O)c1cccc(OCc2ccc(-c3cncc(OC)c3)c(C(C)(C)C)c2)c1
3. CC[C@H](CC(=O)O)c1ccnc(OCc2ccc(-c3cc(OC)ncc3F)c([C@@H]3CCCC3(C)C)c2)c1
4. COc1cc(-c2ccc(COc3cccc([C@@H](CC(=O)O)C4CC4)c3)cc2[C@@H]2CCCC2(C)C)c(F)cn1

Result block:
1: 0.128; 2: 30; 3: 0.15; 4: 0.068

====

Give clearance for every item shown.
experimental.details: Clearance in rat at 0.5 mg/kg, iv
Assay type: ADME, organism-based
Parameters: dose 0.5 mg/kg, route intravenous
experimental.conditions: in vivo
Numbers only, in mL/min/kg.

Known results for compounds:
chem.smiles | reported.measurement
COc1ccc(F)c(-c2ccc(COc3cccc([C@@H](CC(=O)O)C4CC4)c3)cc2CC(C)(C)C)c1 | 20
CC[C@H](CC(=O)O)c1ccnc(OCc2ccc(-c3cc(OC)ncc3F)c([C@@H]3CCCC3(C)C)c2)c1 | 2.5
COc1cc(-c2ccc(COc3cccc([C@@H](CC(=O)O)C4CC4)c3F)cc2[C@@H]2CCCC2(C)C)c(F)cn1 | 2.83
CCO[C@@H](c1cc(COc2cccc([C@@H](CC(=O)O)C3CC3)c2)ccc1-c1cc(OC)ccc1F)C(C)(C)C | 5.33
COc1cc(-c2ccc(COc3cc4c(cn3)CC[C@]43C[C@H]3C(=O)O)cc2[C@@H]2CCCC2(C)C)c(F)cn1 | 4.33

Please examine the following record next.
Query block: clearance lookup needed for `COc1cc(-c2ccc(COc3cccc([C@@H](CC(=O)O)C4CC4)c3)cc2[C@@H]2CCCC2(C)C)c(F)cn1` , thanks.
Result block: 1.67

====

experimental.details: Intrinsic clearance in human liver microsomes at 1 uM after 30 mins
Type: ADME
experimental.conditions: read-out: CLH
Give microsomal CLint at 1 µM for every item shown.
One number for each entry, in µL/min/mg.

chem.smiles | recorded.endpoint | reported.measurement
COc1cc(-c2ccc(COc3cccc([C@@H](CC(=O)O)C4CC4)c3F)cc2[C@@H]2CCCC2(C)C)c(F)cn1 | microsomal CLint at 1 µM | 15
COc1cc(-c2ccc(COc3cccc([C@@H](CC(=O)O)C4CC4)c3)cc2[C@@H]2CCCC2(C)C)c(F)cn1 | microsomal CLint at 1 µM | 21

Please examine the following record next.
Query block: microsomal CLint at 1 µM lookup needed for `COc1ccc(F)c(-c2ccc(COc3cccc([C@@H](CC(=O)O)C4CC4)c3)cc2[C@@H]2CCCC2(C)C)c1` , thanks.
Result block: 52

====

tested.target: Free fatty acid receptor 1 (Homo sapiens)
experimental.details: Agonist activity at GPR40 (unknown origin) expressed in CHO cells assessed as luminescence for 20 seconds interval by aequorin assay in presence of 0.01% human serum albumin
Assay type: cell-based
Give pEC50 for every item shown.
One number for each entry, as −log10 of the molar value.

Known results for compounds:
chem.smiles | recorded.endpoint | reported.measurement
COc1cc(-c2ccc(COc3cccc([C@@H](CC(=O)O)C4CC4)c3)cc2C2=CCCC2(C)C)c(F)cn1 | pEC50 | 6.92
COc1cc(-c2ccc(COc3cc([C@H](C)CC(=O)O)ccn3)cc2[C@@H]2CCCC2(C)C)c(F)cn1 | pEC50 | 6.55
COc1cc(-c2ccc(COc3ccc4c(c3)[C@@](C)(CC(=O)O)CC4)cc2[C@H](OC)C(C)(C)C)c(F)cn1 | pEC50 | 6.63

Query block: pEC50 lookup needed for `COc1cc(-c2ccc(COc3cc4c(cn3)CC[C@]43C[C@H]3C(=O)O)cc2[C@H](OC)C(C)(C)C)c(F)cn1` , thanks.
Result block: 6.60

====

experimental.details: Half life in rat at 0.5 mg/kg, iv
Assay type: ADME, organism-based
Design: dose 0.5 mg/kg, route intravenous
experimental.conditions: in vivo
Binary label based on half-life with cut-off 4 h: below gives true, not below gives false.

Study these solved cases before continuing.
chem.smiles | category
COc1cc(-c2ccc(COc3cc([C@@H](CC(=O)O)C4CC4)ccn3)cc2[C@H](OC)C(C)(C)C)c(F)cn1 | false
COc1cc(-c2ccc(COc3cc4c(cn3)CC[C@]43C[C@H]3C(=O)O)cc2[C@@H]2CCCC2(C)C)c(F)cn1 | true
COc1ccc(F)c(-c2ccc(COc3cccc([C@@H](CC(=O)O)C4CC4)c3)cc2[C@@H]2CCCC2(C)C)c1 | true

Query block: Would you kindly verify if half-life of `COc1ccc(F)c(-c2ccc(COc3cccc([C@@H](CC(=O)O)C4CC4)c3)cc2[C@H](OC)C(C)(C)C)c1` is strictly less than 4 h?
Result block: true

Query block: Would you kindly verify if half-life of `COc1cc(-c2ccc(COc3cccc([C@@H](CC(=O)O)C4CC4)c3)cc2[C@@H]2CCCC2(C)C)c(F)cn1` is strictly less than 4 h?
Result block: true

====

tested.target: Free fatty acid receptor 1 (Homo sapiens, UniProt O14842)
experimental.details: Agonist activity at GPR40 (unknown origin) expressed in mouse A9 cells assessed as inositol phosphate accumulation using [myo-3H]inositol after 1 hr by scintillation counting in presence of 0.3% human serum albumin
Format: functional, cell-based
recorded.endpoint: EC50 (nM)
One number for each entry, in nM.

Known results for molecules:
chem.smiles | recorded.endpoint | unit.abbrev | reported.measurement
COc1cc(-c2ccc(COc3cc([C@@H](CC(=O)O)C4CC4)ccn3)cc2[C@H](OC)C(C)(C)C)c(F)cn1 | EC50 | nM | 0.6
COc1cc(-c2ccc(COc3cc([C@@H](CC(=O)O)C4CC4)ccn3)cc2[C@@H]2CCCC2(C)C)c(F)cn1 | EC50 | nM | 1.7
COc1cc(-c2ccc(COc3cc4c(cn3)CC[C@]43C[C@H]3C(=O)O)cc2[C@H](OC)C(C)(C)C)c(F)cn1 | EC50 | nM | 370

Query block: EC50 lookup needed for `COc1cc(-c2ccc(COc3ccc4c(c3)[C@@](C)(CC(=O)O)CC4)cc2[C@@H]2CCCC2(C)C)c(F)cn1` , thanks.
Result block: 3.4

====

tested.target: Free fatty acid receptor 1 (Homo sapiens, UniProt O14842)
experimental.details: Agonist activity at GPR40 (unknown origin) expressed in CHO cells assessed as luminescence for 20 seconds interval by aequorin assay in presence of 0.01% human serum albumin relative to AM-1638
Type: cell-based
recorded.endpoint: Emax

chem.smiles | Emax
COc1ccc(F)c(-c2ccc(COc3cccc([C@@H](CC(=O)O)C4CC4)c3)cc2CC(C)(C)C)c1 | 102%
CCO[C@@H](c1cc(COc2cccc([C@@H](CC(=O)O)C3CC3)c2)ccc1-c1cc(OC)ccc1F)C(C)(C)C | 101%
COc1ccc(F)c(-c2ccc(COc3cccc([C@@H](CC(=O)O)C4CC4)c3)cc2[C@@H]2CCCC2(C)C)c1 | 101%
CC[C@H](CC(=O)O)c1ccnc(OCc2ccc(-c3cc(OC)ncc3F)c([C@@H]3CCCC3(C)C)c2)c1 | 99%
COc1ccc(F)c(-c2ccc(COc3cccc([C@@H](CC(=O)O)C4CC4)c3)cc2[C@H](F)C(C)(C)C)c1 | 100%

List Emax for every entry below, keeping the order given.
1. COc1cc(-c2ccc(COc3cc([C@H](C)CC(=O)O)ccn3)cc2[C@@H]2CCCC2(C)C)c(F)cn1
2. COc1cc(-c2ccc(COc3cccc([C@@H](CC(=O)O)C4CC4)c3)cc2C2=CCCC2(C)C)c(F)cn1
3. COc1cc(-c2ccc(COc3cc4c(cn3)CC[C@]43C[C@H]3C(=O)O)cc2[C@@H]2CCCC2(C)C)c(F)cn1

Result block:
["136%", "100%", "98%"]

Sourced from ChEMBL document CHEMBL3259605
